Cited source: PubChem BioAssay AID624167

Items are presented alongside their recorded IC50.
- Tested on: PEG-3
- RUN DESCRIPTION: Peg3 promoter luciferase inhibitors, potency, dose response, cell-based, HeLa, CREF/GAPDH counter-screen panel (AID 624167)
- ASSAY SETUP: HeLa PEG-Prom luciferase reporter, overnight, CREF/GAPDH counter-screens, run 1, dose range 1, individual replicate IC50 per panel
READOUT LABEL: IC50

>>> result("c1ccc(CCNc2nc(-c3ccncc3)nc3ccccc23)cc1")
"17.7 µM"
>>> result("COc1cc(/C=C2\\SC(=S)N(CCC(=O)N3CCCCC3)C2=O)cc(OC)c1OC")
"35.1 µM"
>>> result("COc1ccccc1N1CCN(C(=O)c2sc3ncnc(N4CCN(c5ccccn5)CC4)c3c2C)CC1")
"27.6 µM"
>>> result("COc1ccccc1CNC(=O)c1c(N)n(CCCN2CCOCC2)c2nc3ccccc3nc12")
"18.3 µM"
>>> result("CN(C(=O)COC(=O)/C=C/c1cccc([N+](=O)[O-])c1)C1CCS(=O)(=O)C1 (stereo unspecified)")
"0.452 µM"
>>> result("c1ccc(-c2cc(-c3nc4ccccc4[nH]3)c3ccccc3n2)cc1")
"15.3 µM"
>>> result("Cc1cc(Sc2ncnc(N)c2[N+](=O)[O-])ncn1")
"18.7 µM"
>>> result("O=[N+]([O-])c1ccc(-c2ccc(/C=N/Nc3nc(NCc4ccccc4)nc(N4CCOCC4)n3)o2)cc1")
"6.13 µM"
>>> result("CN1CCN(c2ccc(NC(=O)N3CCc4ccccc43)cc2)CC1")
"15 µM"
>>> result("Cc1ccc(/C=C2\\SC(=S)N(CCCC(=O)Nc3ccccn3)C2=O)cc1")
"1.33 µM"
>>> result("COc1ccccc1CN(C)C(=O)c1cc(-c2cc(OC)c(OC)c(OC)c2)nc2ccccc12")
"19.2 µM"
>>> result("CCN(CC)C(=O)c1ccc(NC(=O)Nc2ccccc2F)cc1")
"18.8 µM"
>>> result("NC(=O)c1nsc(C(=O)N(c2ccccc2F)C(C(=O)NCc2ccc(F)cc2)c2ccc(O)cc2)c1N (stereo unspecified)")
"30.4 µM"
>>> result("Cc1ccccc1-c1nc(-c2ccccn2)no1")
"2.98 µM"
>>> result("Cc1nc(-c2ccc(NC(=O)c3ccco3)cc2)cs1")
"1.39 µM"
>>> result("N#Cc1ccc(Cn2cc(C=O)c3ccccc32)cc1")
"31.6 µM"
>>> result("CC(=O)c1ccc(Nc2nc(C(N)Cc3ccc(Cl)cc3)cs2)cc1 (stereo unspecified)")
"25.7 µM"
>>> result("c1ccc(-c2noc(-c3ccc4c(c3)OCO4)n2)nc1")
"0.622 µM"
>>> result("c1cc2c(cc1C1=NNC(=NC3CC3)SC1)OCCO2")
"0.657 µM"
>>> result("CC(C)(C)c1ccc(/C=N/Nc2ccc(C(=O)O)cc2)cc1")
"36.7 µM"
>>> result("CN=c1sc2c(n1C)C(=O)c1ccccc1C2=O")
"9.56 µM"
>>> result("CCc1ccc(NC(=O)CSc2nc3ccccc3c(=O)n2CCCN2CCC(C)CC2)cc1")
"19.8 µM"
>>> result("CCOc1cc(/C=N/N=C(N)N)ccc1OCc1ccc(Cl)cc1")
"16.9 µM"
>>> result("CSc1ccc(CN(C)C(=O)C(Cc2ccccc2)NC(=O)c2ccccc2)cc1 (stereo unspecified)")
"21.3 µM"
>>> result("CN(C)c1ccc(/C=C(\\C#N)c2ccccn2)cc1")
"4.25 µM"
>>> result("Cc1cc(C)c2nc(N(CCCN(C)C)C(=O)c3ccc(S(=O)(=O)N4CCCCCC4)cc3)sc2c1")
"24.3 µM"
>>> result("Cc1cc(Cl)n2ncc(-c3ccccc3)c2n1")
"40.1 µM"
>>> result("CCN1C=CC(=C2C(=O)c3ccccc3C2=O)C=C1")
"0.834 µM"
>>> result("COc1ccc(CNC(=O)Nc2nc(C(N)Cc3ccc(F)cc3)cs2)cc1 (stereo unspecified)")
"16.6 µM"
>>> result("COC(=O)CSC1=NS(=O)(=O)c2ccccc21")
"> 100 µM"
>>> result("CC(=O)c1cccc(-c2csc3ncnc(Sc4nnnn4C)c23)c1")
"16 µM"
>>> result("Cc1ccc(-c2nc(-c3ccccn3)no2)cc1")
"0.479 µM"
>>> result("COc1ccc(C(=O)O/N=C(\\N)c2ccccn2)cc1")
"3.11 µM"
>>> result("O=[N+]([O-])c1nn(-c2ccc3c(c2)OCCO3)n(O)c1=Nc1ccc(Cl)cc1")
"1.07 µM"
>>> result("O=c1c2ccccc2nc(CSc2ncnc3nc[nH]c23)n1-c1ccc(Cl)c(Cl)c1")
"8.77 µM"
>>> result("CCOC(=O)C1=C(COCCN)NC(C)=C(C(=O)OC)C1c1ccccc1Cl (stereo unspecified)")
"19 µM"
